- PROTOCOL: soluble on expression in E. coli; label from the status in PepcDB or PDB records

- ENTRY_SEQUENCE: "VVTCATDGNHGRSVAWGAQMFGCGCIIYIHRDVSEGRKVAMEAFDAEVIRITGNYDESVRQAGADAKAHGRIIVSDTSYEGYMEVPKDVALGYTVMLAETVEQLDGEIPTHVFVQGGVGGLASAVAGYFWDLWGDRRPRFVVVEPEQANCLQLSAKAGEPVVVKGDLDTLMAGLACGEVSLLAWQILSNGADDFMTLSEDAIADTMSLLAKGYKGDPAIEAGESAVPGLAAAINARAQDTFAKALNLDAQSKVLVIGTEGAT"
  soluble on expression in E. coli: "not soluble"
- ENTRY_SEQUENCE: "DDKLRIGGTALFKRDRFVDNIGIEDSFFLKLMVDEMKQTTHQFQIDEDGEKAYVVVEKIFSSFNREMTGSMEAPHFRCHIHFRGEITDYTGPLTLTKDETMNKIEEGMARQIETKGEELLKRFQSLGIDPVGLGEKYRSHTRDWKPGVWHDSIYEQATVEVTAEVEIVQSGVTE"
  soluble on expression in E. coli: "not soluble"
- ENTRY_SEQUENCE: "NLVNFHRMIKLTTGKEAALSYGFYGCHCGVGGRGSPKDATDRCCVTHDCCYKRLEKRGCGTKFLSYKFSNSGSRITCAKQDSCRSQLCECDKAAATCFARNKTTYNKKYQYYSNKHCRGSTPRC"
  soluble on expression in E. coli: "soluble"
- ENTRY_SEQUENCE: "MGSDKIHHHHHHMLTMKPEFVAQLERVLSSVEMLLPRAVKPVNWSTCYAANWRRHSFSGFLQAVRVTDTTSLHELLGVEKQKEIMISNTRQFLKGLPANNALLWGSRGTGKSSLVKALLNEYACEGLRVIQVEKEDLIYLSDIFSAVEGEPYRFILLCDDLTFEPGELTYKILKSALDGSVYSPPENVLIYVTSNRRHLLPEYESDNIGWKLVNGELQESEATEEKIALSDRFGLWVPFHVFTQDRYLEAVRLCVEREARTREVDIPWSEQLRLDAIQWSHDKKKRCGRTAYQFSKHWVGKYLLARQAA"
  soluble on expression in E. coli: "not soluble"
- ENTRY_SEQUENCE: "SEETYTDSLDPEKLLQCPYDKNHQIRACRFPYHLIKCRKNHPDVASKLATCPFNARHQVPRAEISHHISSCDDRSCIEQDVVNQTRSLRQETLAESTWQCPPCDEDWDKDLWEQTSTPFAWGTTHYSDNNSPASNIVTEHKNNLASGMRVPKSLPYVLPWKNNGNAQ"
  soluble on expression in E. coli: "soluble"
- ENTRY_SEQUENCE: "MSLQSEKTEAVVTLGANLTKSERLQMLDAFGVKANEVKIIDVTNQDIREQLGLDTSKPIPASSQSISSSYVVVKDKGGINVTTNNLTEVTGSMLANALLTSGVNNADVKADAPFKVTGTAALAGILKGFEDASGEELSLPKKEAAREEISLTNNLSNAKTKDGQTLGKDEAAVVVNDIKTDVIKDKPKNDEEIGKIVNNVTNNYNILLTQGQQEQTIKFMSKINDLDYNYGAMKESLNQMNDKLQQILKDTGKQLEESGLLEKALNGIKNVLVDIKDFLVNMFSSASEKVKDGITYDENGNIVIKTGNNSDESKNEESIQDKPQTQSNDNNQNQENEQGQNQTKEGHHHHHH"
  soluble on expression in E. coli: "not soluble"
- ENTRY_SEQUENCE: "MGSDKIHHHHHHMKYKIHWLYKTKRGLQTDLTTDYMNIEEVLQFAEDFEKTGRVKELLFYDEMDAEWSLKEMKKLSKQVEDEPQEILVYFDGGYDVQTKEAGVGICVYYKKGNKNYRIRRNAYIEGIYDNNEAEYASLLYSMNILEELGIKYEAVTLRGDSQVVLQQLAGEWPCYDEHLNHYLDQIEQKAKQMKLKLVCEPISRKQNKEAHQLATQALEGTVIDSHKEITE"
  soluble on expression in E. coli: "not soluble"
- ENTRY_SEQUENCE: "MRLILLALLALVFPAVAQEDMPAKVWLEKMSQALKEKEFKASIIQLQADHIRPLVYLHGKVNNQEVAFLEYLNGPPKNAVRVGNRVTFIEHDQPAYSILSNHIQGVWPAAFSSQMSDLEVGYQFVMGGRTRIAGRPGQMIRLLPNDEYRYGFQIWLDMDTYLPLRYDMLTQDKQLLEQLMVIELIEFSEPPSILQEAYKQEWPAVIDQAERQDGQNWQFSWLPAGFSVVVRDHHRLIGSHEAVEYIALTDGLANISIYVARAGSTPLPEELITRNGLSLVAEKVGNAEVVAVGKVPTETLARIAKSLMLK"
  soluble on expression in E. coli: "not soluble"
- ENTRY_SEQUENCE: "MGSDKIHHHHHHMLDKKTDILLAARKLFSEKDFTSVSMQAIAEECKMSKASIYKLFQSKEDLLLELLSFNQKQMVAAASRLQENTALTPEERLTQKVKMELEGFRRNQQFFNMLTYGNPRLHNDRVKQHIHQTRSTIICWHRDSLIQAYGETILPFVWDLVIILHGMMREFLMLIKIEEKPLELDPIAEFIISTLNQIIKNRETRQSLLPPEAIELYIHSASSYKPKDKSVLLSESLKELHKGISSLSAADYDVDELTSAAAMLEEEAKKEEPRAFLLKSLIGYLEQTGVLTQPVSMLKTLLIT"
  soluble on expression in E. coli: "not soluble"
- ENTRY_SEQUENCE: "ESCDLEVYDRVNQSDQLCVISGQGNKRVSFYVTEGVVRNLSLGDKMTVEKEGNAYEGVINDISTMVDDSNGLFKIKADLAQADSVATGSVVKVKVISGRSDNVMTVPVDAIYYDGGVGNVYVYEDGAVHKKEVEVGLYDSELAEIRSGLAADELVISTWSSQLYEGSTVNLKSEGGESAPAGKEPGTGRTETSAAAE"
  soluble on expression in E. coli: "not soluble"
- ENTRY_SEQUENCE: "MGVALAAMCLMSAQAQRRNEIQVPNLNGYTTLKCDFHMHSVFSDGLVWPTVRVDEAYREGLDAISLTEHIEYRPHKKDIIADHNRSYELSQKQAKKLGILLIRGSEITRSMPPGHFNAIFLNDSNPLEQKAYKDAFNEAKKQGAFIFWNHPGWARQQPDSTLWWPEHTQLYNDGCMHGIEVANGGLFMPEAIQWCLDKNLTMIGTSDIHQPIQTDYDFSKGEHRTMTFVFAKERSPEGIREALDNRRTAVYYRELVIGREEILRPFFEKCVDIKEVKRTEKEVTFSVMNATDLVLKLKKTAHDPSLVYFREMTLKPHTQHTISVKFDNGIKGGDCNFEVTNFIVAPDKGLDYTIKL"
  soluble on expression in E. coli: "not soluble"

----------
- PROTOCOL: soluble on expression in E. coli; label from the status in PepcDB or PDB records

- ENTRY_SEQUENCE: "LAEGKEIPCFALTSPEAGSDAGSIPDYGVVTKGMWEGEEVVGMRITWNKRYITLAPVATVLGLAFKLQDPDGLLGDKKDLGITCALIPTDLDGVKIGRRHFPLNVPFQNGPTQGNDLFVPLDYIIGG"
  soluble on expression in E. coli: "not soluble"
- ENTRY_SEQUENCE: "MTGKSVREVPMTEEILAESIALRLRRDILRGKLVPGTSIKERDNAAEMGVSRTPMREAIRILANEGLVQLRPSRSPIVTQLSLNEVVSFIEVLSALEMLAVTLACERATKIDIAHVRGAERKLATQYDRIDQVERFELDMDFHIALTRASHNQALSDTHMSYLRRLWYARFQSARNRHTKDRVLQQHAALVDAIERRDPTMAQTELSSHLENLRINVHAYFERAEREQLQLKNSA"
  soluble on expression in E. coli: "not soluble"
- ENTRY_SEQUENCE: "MITVKNIEGSETYVLRQKILRPNQTLADCKYPSDYETDTFHLGAFINDQLISIASFSKEMHPDLQAGMHYRLRGMATLPEFRNNHAGSSLIQKAEQILQERQANMLWCNGRITVADYYKRLGFQEHGEIFEIEPIGLHKVLYKRI"
  soluble on expression in E. coli: "not soluble"

----------
- PROTOCOL: soluble on expression in E. coli; label from the status in PepcDB or PDB records

- ENTRY_SEQUENCE: "MSLKWAHPIPFPETGCVLVATEKLDGYRTFARTVVLLLRAGTRHPQEGPFGVVINRPLHKNIKHMKSTKTELATTFSECSLYFGGPLEASMFLLKTGDKTKIPGFEEVMPGLNFGTRNSLDEAAVLVKKGVLKPQEFRFFVGYAGWQLDQLREEIESDYWHVAACSSDLICGASSENLWEEILQLMGGQYSELSRKPKLDIEGHHHHHH"
  soluble on expression in E. coli: "soluble"
- ENTRY_SEQUENCE: "MNDEINEPPPNICEQCLGDEANIRMTKIPQGSECKICTLPFTLYHFKTSKRSNNIIKTLICVRCATQRNICQCCMLDSRWHIPIQLRDHLISLVNEENVMTEEAKNDMMKRFLSLKNVKLGGAQITSDPSEADNIVDKLKNILLRATSDGPSTPLIKNTTALYKNEKGANEVKNLEKYASVDISHILKKLPLNESFLKNPSTKSFFLYNIDASIPEWKITDTVSQLLGIKKWKDGNSLSLIVNHKAKCGGLRFQSSELGERFVSKISETLVTPKGLKRGVLLIDRFRIFIIPWSSGFSAASFGTNTAENIKLSLSLNKLIQLELGLSFPTKSTDNAKNDKKKTSKKVHKDRSKKSKPRANKLTI"
  soluble on expression in E. coli: "soluble"
- ENTRY_SEQUENCE: "MAHHHHHHMSDKLEDIGEFVLVIGDFHSPMRNLGLPDCFKDLLKTDKIKHVLCTGNVGCNENLELLKNIADSVHITKGDMDNNFDFPEKINIKIGDFKISLVHGHQIIPWGDLNALLQWQKEYDSDIIISGHTHKNSINNFEGKYFINPGSATGAFQPWISNPTPSFILMAISKSSIVVYVYEEKNGKMNVEMSELRKQ"
  soluble on expression in E. coli: "soluble"
- ENTRY_SEQUENCE: "MGSDKIHHHHHHMKKIAIFCHNFFSNGTVKIALSQAEVLQEAGQDVHLFVFHKEGDFMPPENVTIHYLYDAGQKPSLQEQRQHLKAKVAEAEQSGKFSLFLSNSTDCDVVVSGCDFEPCYYFCHCALKQELLMELKRGPVHFWRRWKKAKALIGKKIITVSNGIADELRATSWLKPQSVQTIYNPFRLEEIRKKTQEVIAEIPNVPYMIHVGRVTRQKRHDILFKALRDMPTAPKLVLLCNRPKKARKLAKKYGVEHRIITPGFQHNPYAWIAKAELMLLSSDFEGLPTVVIESLACGTPVVSTDCPHGPNEILTGHLAQYLVPVRQPALLAQKALECLASPPALDNLEILKAVDSQYIAAQYINLAQ"
  soluble on expression in E. coli: "not soluble"
- ENTRY_SEQUENCE: "PKHGKRYRALLEKVDPNKIYTIDEAAHLVKELATAKFDETVEVHAKLGIDPRRSDQNVRGTVSLPHGLGKQVRVLAIAKGEKIKEAEEAGADYVGGEEIIQKILDGWMDFDAVVATPDVMGAVGSKLGRILGPRGLLPNPKAGTVGFNIGEIIREIKAGRIEFRNDKTGAIHAPVGKASFPPEKLADNIRAFIRALEAHKPEGAKGTFLRSVYVTTTMGPSVRINPHS"
  soluble on expression in E. coli: "soluble"
- ENTRY_SEQUENCE: "MEERDRVKITDRLARPLRDLRLSVIDQCNFRCVYCMPAEVFGPNFRFLAEDQLLTVEEMALLAECFVELGVEKIRLTGGEPLLRRDLDALIERLSALPGLRDIGLTTNGVHLVKWAQRLKAAGLKRVNVSLDALDDDIFRKMNGIGVGAAPVLKGIEAALAAGLGVKVNMVVKKGWNDSQIVPMAAYFKDLGIPLRLIEFMDVGTTNGWDYSHVVTKKEMYEQINAMHPLEPVEKEYFGEVASRYRYAGTNVEVGFIASVTETFCQSCTRARISADGKLYTCLFASKGVSLKDKLRAGEGKEEIKALITTVWNRRTDRYSEERTAETAKQRPKIEMSYIGG"
  soluble on expression in E. coli: "not soluble"
